tested-system: DAT (Rattus norvegicus)
Construct: from tissue; host or cells: rat caudate membranes
Sequence (P23977 whole entry): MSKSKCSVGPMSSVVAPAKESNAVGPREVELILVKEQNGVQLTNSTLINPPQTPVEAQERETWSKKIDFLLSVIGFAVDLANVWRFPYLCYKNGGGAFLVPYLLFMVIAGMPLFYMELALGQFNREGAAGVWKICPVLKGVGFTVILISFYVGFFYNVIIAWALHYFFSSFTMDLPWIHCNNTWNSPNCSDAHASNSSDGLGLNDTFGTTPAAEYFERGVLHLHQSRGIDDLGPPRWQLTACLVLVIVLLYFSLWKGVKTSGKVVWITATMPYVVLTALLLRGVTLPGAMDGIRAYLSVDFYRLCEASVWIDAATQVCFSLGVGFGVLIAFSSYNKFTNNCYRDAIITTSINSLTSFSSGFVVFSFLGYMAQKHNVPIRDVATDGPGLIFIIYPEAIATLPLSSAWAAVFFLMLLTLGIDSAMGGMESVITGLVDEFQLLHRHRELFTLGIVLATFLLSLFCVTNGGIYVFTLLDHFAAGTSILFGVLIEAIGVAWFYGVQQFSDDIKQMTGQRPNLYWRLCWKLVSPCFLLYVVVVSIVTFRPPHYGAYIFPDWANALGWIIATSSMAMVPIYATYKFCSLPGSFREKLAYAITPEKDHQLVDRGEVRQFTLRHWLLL
experiment-notes: Dopamine transporter binding, inhibition of [^3H]WIN35428 binding in rat caudate membranes
details: read-out: WIN Binding EC50 (μM ± SD)
assay-readout: log10 EC50 (log10 of the value in µM)

> print(dat)
                                smiles.data  reported.measurement
1  CN(C)c1ncc(-c2nc(NCCC(c3ccccc3)c3ccccc3)c3ccccc3n2)cn1                  0.34
2  CN(C)c1ccc(-c2nc(NCC(c3ccccc3)c3ccccc3)c3ccccc3n2)cn1                  0.08
3  c1ccc(C(Nc2nc(-c3ccc4[nH]ccc4c3)nc3ccccc23)c2ccccc2)cc1                  0.43
4  c1ccc(C(CNc2nc(-c3ccc4[nH]ccc4c3)nc3ccccc23)c2ccccc2)cc1                 -0.05
5  CN(C)c1ncc(-c2nc(NCC(c3ccccc3)c3ccccc3)c3ccccc3n2)cn1                  0.23
6  c1ccc(C(CCNc2nc(-c3ccc4[nH]ccc4c3)nc3ccccc23)c2ccccc2)cc1                 -0.70
7  CN(C)c1ncc(-c2nc(NC(c3ccccc3)c3ccccc3)c3ccccc3n2)cn1                  0.26

###

tested-system: dopamine transporter (DAT) (Rattus norvegicus)
Sequence (P23977 whole entry): as above
experiment-notes: Dopamine reuptake ([^3H]dopamine uptake) inhibition in rat brain synaptosomes
details: read-out: DA Uptake Emax (% I ± SD)
Give y when the value for Emax is at least 70%. Give n when it is less.

> print(dat)
                                   compound  assigned.class
1  Cn1cc2c(-c3nc(NCC(c4ccccc4)c4ccccc4)c4ccccc4n3)cccc2n1               n
2  c1ccc(C2CN(c3nc(-c4cnc5nccn5c4)nc4ccccc34)Cc3ccccc32)cc1 (centres unmarked)               y
3  c1ccc(CC(CNc2nc(-c3cnc4nccn4c3)nc3ccccc23)c2ccccc2)cc1 (centres unmarked)               y
4  c1ccc(C(CCNc2nc(N3CCCCC3)nc3ccccc23)c2ccccc2)cc1               y
5  CN(C)c1ncc(-c2nc(NC(c3ccccc3)c3ccccc3)c3ccccc3n2)cn1               n
6  c1ccc(CC(Nc2nc(-c3ccc4nccn4c3)nc3ccccc23)c2ccccc2)cc1 (centres unmarked)               y
7  c1ccc(C(Nc2nc(N3CCCCC3)nc3ccccc23)c2ccccc2)cc1               y
8  c1ccc(C(CNc2nc(-c3ccc4nccn4c3)nc3ccccc23)c2ncccn2)cc1 (centres unmarked)               y
9  CS(=O)(=O)Nc1ncc(-c2nc(NCC(c3ccccc3)c3ccccc3)c3ccccc3n2)cn1               n

###

tested-system: dopamine transporter (DAT) (Rattus norvegicus)
experiment-notes: Dopamine reuptake ([^3H]dopamine uptake) inhibition in rat brain synaptosomes
details: DA Uptake EC50 (nM ± SD), rat caudate synaptosomes; 5 nM [^3H]dopamine; 15 min, 25° C.; three experiments pooled
assay-readout: IC50 (nM)

> print(dat)
                                   molecule  reported.measurement
1  c1ccc(C(CNc2nc(-c3cc4ccccc4[nH]3)nc3ccccc23)c2ccccc2)cc1 [compound 42]                   200
2  c1ccc2c(NCC(c3ccncc3)c3ccncc3)nc(-c3cnc4nccn4c3)nc2c1 [compound 176]                   299
3  c1ccc(C(CNc2nc(N3CCc4ccccc4C3)nc3ccccc23)c2ccccc2)cc1 [compound 193]                   1.7
4  c1ccc(C(CNc2nc(-c3ccc4nccn4c3)nc3ccccc23)N2CCCC2)cc1 (centres unmarked) [compound 121]                   170
5  c1ccc(C(CCNc2nc(-c3cccs3)nc3ccccc23)c2ccccc2)cc1 [compound 7]                   910
6  CC(C)(C)OC(=O)n1cc(-c2nc(NCC(c3ccccc3)c3ccccc3)c3ccccc3n2)c2cccnc21 [compound 73]                  1310
7  c1ccc(C(CNc2nc(-c3ccc4ncsc4c3)nc3ccccc23)c2ccccc2)cc1 [compound 70]                    45
8  c1ccc(C(CNc2nc(N3CCCCC3)nc3ccccc23)c2ccccc2)cc1 [compound 4]                    60

###

tested-system: dopamine transporter (DAT) (Rattus norvegicus)
experiment-notes: Dopamine reuptake ([^3H]dopamine uptake) inhibition in rat brain synaptosomes
details: DA Uptake EC50 (nM ± SD), rat caudate synaptosomes; 5 nM [^3H]dopamine; 15 min, 25° C.; three experiments pooled
log10 of IC50 for assorted molecules
assay-readout: log10 of IC50 (log10 of the value in nM)

> print(dat)
                                    molecule  assay.readout  reported.measurement
 1  CN1CCN(C(CNc2nc(-c3cnc4nccn4c3)nc3ccccc23)c2ccccc2)CC1 (stereo not shown) [compound 129]  log10 of IC50                  1.69
 2  c1ccc(C(CNc2nc(-c3cnc(N4CCCC4)nc3)nc3ccccc23)c2ccccc2)cc1 [compound 37]  log10 of IC50                  2.08
 3  c1ccc(C2CN(c3nc(-c4cnc5nccn5c4)nc4ccccc34)Cc3ccccc32)cc1 (stereo not shown) [compound 143]  log10 of IC50                  2.70
 4  c1ccc(C(CNc2nc(-c3ccc4nccn4c3)nc3ccccc23)c2ncccn2)cc1 (stereo not shown) [compound 103]  log10 of IC50                  2.74
 5  c1ccc(C(CNc2nc(-c3cnc4nccn4c3)nc3ccccc23)c2cccnc2)cc1 (stereo not shown) [compound 134]  log10 of IC50                  1.49
 6  CS(=O)(=O)n1ccc2cc(-c3nc(NCC(c4ccccc4)c4ccccc4)c4ccccc4n3)ccc21 [compound 154]  log10 of IC50                  1.75
 7  c1ccc(C(CNc2nc(-c3cnc4nccn4c3)nc3ccccc23)c2ncccn2)cc1 (stereo not shown) [compound 109]  log10 of IC50                  2.58
 8  COc1ccc2nc(-c3cccnc3)nc(NCC(c3ccccc3)c3ccccc3)c2c1 [compound 59]  log10 of IC50                  2.72
 9  c1ccc(C(CNc2nc(N3CCc4[nH]ccc4C3)nc3ccccc23)c2ccccc2)cc1 [compound 163]  log10 of IC50                  0.57
10  Nc1ncc(-c2nc(NCC(O)(c3ccccc3)c3ccccc3)c3ccccc3n2)cn1 [compound 97]  log10 of IC50                  2.82
11  CC(CNc1nc(-c2ccc3nccn3c2)nc2ccccc12)(c1ccccc1)c1ccccc1 [compound 164]  log10 of IC50                  0.81
12  FC(F)(F)CNc1ncc(-c2nc(NCC(c3ccccc3)c3ccccc3)c3ccccc3n2)cn1 [compound 45]  log10 of IC50                  2.24
13  c1ccc(C(CNc2nc(-c3ccc4nncn4c3)nc3ccccc23)c2ccccc2)cc1 [compound 114]  log10 of IC50                  1.83
14  c1ccc(C(CNc2nc(-c3cnc4[nH]ccc4c3)nc3ccccc23)c2ccccc2)cc1 [compound 123]  log10 of IC50                  1.49
15  c1ccc(C(CCNc2nc(N3CCCCC3)nc3ccccc23)c2ccccc2)cc1 [compound 9]  log10 of IC50                  2.15
16  COCCNc1ncc(-c2nc(NCC(c3ccccc3)c3ccccc3)c3ccccc3n2)cn1 [compound 47]  log10 of IC50                  2.17

###

IC50 for assorted molecules
tested-system: norepinephrine transporter (NET) (Rattus norvegicus, UniProt Q9WTR4)
experiment-notes: Norepinephrine reuptake ([^3H]norepinephrine uptake) inhibition in rat brain synaptosomes
details: read-out: NET Uptake IC50; mean ± S.D., n = 3
assay-readout: IC50 (nM)

> print(dat)
                                   molecule  reported.measurement
1  OC(CNc1nc(-c2cnc3nccn3c2)nc2ccccc12)(c1ccccc1)c1ccccc1                    69
2  CSc1ncc(-c2nc(NCC(c3ccccc3)c3ccccc3)c3ccccc3n2)cn1                   204
3  c1ccc(C(CNc2nc(-c3ccc4nccn4c3)nc3ccccc23)C2CCCCC2)cc1 (centres unmarked)                   153
4  c1ccc(C(CNc2nc(-c3cnc4nccn4c3)nc3ccccc23)c2ccncc2)cc1 (centres unmarked)                    60
5  CN(C)c1ncc(-c2nc(NCC(O)(c3ccccc3)c3ccccc3)c3ccccc3n2)cn1                   259
6  c1ccc(C(CNc2nc(-c3cnc4nccn4c3)nc3ccccc23)c2ccccn2)cc1 (centres unmarked)                   132
7  c1ccc(C(CNc2nc(-c3ccc4nccn4c3)nc3ccccc23)c2cccnc2)cc1 (centres unmarked)                    78
8  c1ccc(C(CNc2nc(-c3ccc4nccn4c3)nc3ccccc23)c2ccccc2)cc1                    52
